All figures here come from patent US20230235054A1.

- EXPERIMENTAL_SYSTEM: T1, human Nectin-4 on cells (human, UniProt Q96NY8 32-510)
- T1 construct: whole, on cells; also called HEK293 cells expressing human Nectin-4; T47D cells that express human Nectin-4
- T1 sequence (looked up): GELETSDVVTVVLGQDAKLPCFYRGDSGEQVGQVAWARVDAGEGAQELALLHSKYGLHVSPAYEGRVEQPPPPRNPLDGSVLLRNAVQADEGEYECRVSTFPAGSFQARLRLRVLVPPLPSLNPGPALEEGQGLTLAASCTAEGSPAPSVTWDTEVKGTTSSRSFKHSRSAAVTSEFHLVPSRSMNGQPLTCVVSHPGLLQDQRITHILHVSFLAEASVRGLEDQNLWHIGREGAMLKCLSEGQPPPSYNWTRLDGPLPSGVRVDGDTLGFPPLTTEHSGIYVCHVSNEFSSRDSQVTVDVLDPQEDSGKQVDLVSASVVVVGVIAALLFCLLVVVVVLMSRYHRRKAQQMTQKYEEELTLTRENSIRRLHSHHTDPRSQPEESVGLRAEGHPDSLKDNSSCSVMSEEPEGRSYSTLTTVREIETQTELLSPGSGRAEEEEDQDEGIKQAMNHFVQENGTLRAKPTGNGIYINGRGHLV
- ASSAY: FACS, HEK293 cells expressing human Nectin-4
# Ratio (pH 7.4/6.0) of EC50 annotations
Reply with just the number.

Examples with their reported Ratio (pH 7.4/6.0) of EC50 follow.
# BINDER, OBSERVED
data = [
    ("BAP-143-00-06 (antibody, V domains shown, Used as a conjugate with a linker payload (CAB ADC)) VH: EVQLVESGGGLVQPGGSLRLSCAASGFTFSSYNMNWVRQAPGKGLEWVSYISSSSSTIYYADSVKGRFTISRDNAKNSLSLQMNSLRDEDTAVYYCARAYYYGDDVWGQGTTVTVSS VL: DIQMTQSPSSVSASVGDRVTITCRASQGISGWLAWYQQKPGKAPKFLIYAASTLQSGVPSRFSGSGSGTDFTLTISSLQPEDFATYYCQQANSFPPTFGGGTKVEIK", 1.2),
    ("BAP-143-00-04 (antibody, V domains shown, Used as a conjugate with a linker payload (CAB ADC)) VH: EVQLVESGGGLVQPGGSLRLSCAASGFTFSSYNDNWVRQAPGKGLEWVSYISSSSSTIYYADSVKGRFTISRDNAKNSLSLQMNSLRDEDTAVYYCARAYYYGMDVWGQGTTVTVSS VL: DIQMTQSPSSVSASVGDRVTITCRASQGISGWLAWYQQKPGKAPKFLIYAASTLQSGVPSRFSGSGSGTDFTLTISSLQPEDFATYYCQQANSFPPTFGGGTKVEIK", 2.1),
    ("BAP-143-00-03 (antibody, V domains shown, Used as a conjugate with a linker payload (CAB ADC)) VH: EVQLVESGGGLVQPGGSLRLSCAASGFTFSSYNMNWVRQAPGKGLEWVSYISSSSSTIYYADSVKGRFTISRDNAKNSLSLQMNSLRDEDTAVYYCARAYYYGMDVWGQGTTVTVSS VL: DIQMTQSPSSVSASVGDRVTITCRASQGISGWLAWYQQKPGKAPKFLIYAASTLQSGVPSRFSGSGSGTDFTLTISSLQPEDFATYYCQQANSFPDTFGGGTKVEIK", 2),
    ("BAP-143-00-01 (antibody, V domains shown, Used as a conjugate with a linker payload (CAB ADC)) VH: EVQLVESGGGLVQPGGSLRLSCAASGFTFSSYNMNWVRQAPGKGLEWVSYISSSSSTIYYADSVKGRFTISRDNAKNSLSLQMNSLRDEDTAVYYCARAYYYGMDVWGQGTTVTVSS VL: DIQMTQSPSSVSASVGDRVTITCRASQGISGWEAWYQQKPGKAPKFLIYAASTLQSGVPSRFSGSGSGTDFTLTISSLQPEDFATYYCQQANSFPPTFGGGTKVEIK", 3.3),
    ("BAP-143-wildtype (antibody, V domains shown, 150 kDa used in SPR; also called BAP143-00-00; benchmark (BM)) VH: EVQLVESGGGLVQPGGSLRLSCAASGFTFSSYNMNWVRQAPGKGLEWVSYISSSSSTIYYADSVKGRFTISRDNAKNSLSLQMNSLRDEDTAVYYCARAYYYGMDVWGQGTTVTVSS VL: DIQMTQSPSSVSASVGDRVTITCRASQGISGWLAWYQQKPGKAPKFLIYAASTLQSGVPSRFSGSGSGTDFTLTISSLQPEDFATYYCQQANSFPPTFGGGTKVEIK", 1.2),
    ("BAP-143-00-05 (antibody, V domains shown, Used as a conjugate with a linker payload (CAB ADC)) VH: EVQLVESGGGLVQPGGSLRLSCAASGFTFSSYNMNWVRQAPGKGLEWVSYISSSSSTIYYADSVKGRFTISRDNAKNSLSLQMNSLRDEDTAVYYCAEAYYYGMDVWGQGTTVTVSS VL: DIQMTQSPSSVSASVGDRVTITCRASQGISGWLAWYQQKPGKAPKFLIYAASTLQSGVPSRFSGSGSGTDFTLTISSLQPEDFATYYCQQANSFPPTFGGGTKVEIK", 1.7),
]

Which Ratio (pH 7.4/6.0) of EC50 value belongs to BAP-143-00-02 (antibody, V domains shown, Used as a conjugate with a linker payload (CAB ADC)) VH: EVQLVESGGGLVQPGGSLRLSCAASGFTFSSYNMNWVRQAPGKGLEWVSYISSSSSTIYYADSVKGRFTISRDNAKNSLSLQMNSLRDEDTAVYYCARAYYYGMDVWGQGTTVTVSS VL: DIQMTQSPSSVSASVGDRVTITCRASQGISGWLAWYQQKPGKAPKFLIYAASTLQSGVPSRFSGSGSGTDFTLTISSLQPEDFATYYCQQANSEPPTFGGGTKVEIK ?
1.6
